# TARGET_OF_ASSAY: Serine/threonine-protein kinase PAK 3 (Homo sapiens, UniProt O75914)
# ASSAY_METHOD_TEXT: Selectivity interaction (ScanMAX (DiscoverX, competition-binding assay)) EUB0000285b PAK3
PARAMETER: Kd

>>> print(df.to_string())
                           substance_smiles  parameter  experimental_value
0  O=C(NCc1ccccc1)c1ccc(S(=O)(=O)NCc2ccccc2)cc1         Kd             > 10 µM

---

# TARGET_OF_ASSAY: Muscarinic acetylcholine receptor M1 (Homo sapiens, UniProt P11229)
# Sequence (P11229 whole entry): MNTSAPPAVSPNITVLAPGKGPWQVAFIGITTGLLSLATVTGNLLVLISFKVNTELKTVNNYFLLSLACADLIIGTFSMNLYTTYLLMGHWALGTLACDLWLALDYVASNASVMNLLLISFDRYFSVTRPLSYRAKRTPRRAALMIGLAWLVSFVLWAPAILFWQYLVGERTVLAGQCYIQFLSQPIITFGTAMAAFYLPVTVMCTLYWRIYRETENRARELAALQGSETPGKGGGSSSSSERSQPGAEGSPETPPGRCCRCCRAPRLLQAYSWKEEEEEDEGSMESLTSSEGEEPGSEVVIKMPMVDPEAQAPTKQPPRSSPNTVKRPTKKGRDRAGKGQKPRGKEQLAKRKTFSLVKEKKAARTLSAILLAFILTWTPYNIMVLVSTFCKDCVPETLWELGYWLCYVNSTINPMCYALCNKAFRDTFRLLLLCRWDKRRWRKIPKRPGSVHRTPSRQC
# ASSAY_METHOD_TEXT: Selectivity interaction (GPCR panel (PDSP screen)) EUB0000743a CHRM1
PARAMETER: Ki (nM)

In [3]: df
Out[3]:
                           substance_smiles  experimental_value
0  CNCc1ccccc1-c1csc([C@H](C)Nc2nc(C)nc3cc(OC)c(OC)cc23)c1                 614

---

# TARGET_OF_ASSAY: Receptor-type tyrosine-protein kinase FLT3 (Homo sapiens)
# Sequence (P36888 whole entry): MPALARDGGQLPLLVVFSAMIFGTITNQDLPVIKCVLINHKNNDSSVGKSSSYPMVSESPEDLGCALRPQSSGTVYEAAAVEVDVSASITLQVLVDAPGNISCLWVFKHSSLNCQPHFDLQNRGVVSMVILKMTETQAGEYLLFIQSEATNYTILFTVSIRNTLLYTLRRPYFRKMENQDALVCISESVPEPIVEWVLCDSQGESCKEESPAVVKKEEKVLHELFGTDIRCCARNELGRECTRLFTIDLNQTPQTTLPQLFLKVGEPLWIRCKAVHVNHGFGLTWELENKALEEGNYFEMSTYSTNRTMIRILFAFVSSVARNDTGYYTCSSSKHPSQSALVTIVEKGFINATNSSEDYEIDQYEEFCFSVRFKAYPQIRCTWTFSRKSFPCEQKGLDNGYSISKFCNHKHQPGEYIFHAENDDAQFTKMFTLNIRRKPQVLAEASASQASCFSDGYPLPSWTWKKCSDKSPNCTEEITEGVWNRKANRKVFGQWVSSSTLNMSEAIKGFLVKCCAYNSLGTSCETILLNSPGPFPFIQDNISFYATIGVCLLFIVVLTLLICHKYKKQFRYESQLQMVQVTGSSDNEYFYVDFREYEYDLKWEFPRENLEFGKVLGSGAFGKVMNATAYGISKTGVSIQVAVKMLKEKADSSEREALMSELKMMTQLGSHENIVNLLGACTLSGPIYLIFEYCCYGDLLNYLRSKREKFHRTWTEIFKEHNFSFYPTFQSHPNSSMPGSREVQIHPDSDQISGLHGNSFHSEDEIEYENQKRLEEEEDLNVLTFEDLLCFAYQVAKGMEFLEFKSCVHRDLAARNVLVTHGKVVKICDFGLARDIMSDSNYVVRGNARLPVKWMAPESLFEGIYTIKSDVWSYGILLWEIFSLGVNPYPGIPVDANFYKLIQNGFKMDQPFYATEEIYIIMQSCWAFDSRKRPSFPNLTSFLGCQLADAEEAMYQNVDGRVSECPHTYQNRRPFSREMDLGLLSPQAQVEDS
# ASSAY_METHOD_TEXT: Selectivity interaction (NanoBRET assay (HEK293T cells)) EUB0000321b FLT3
pIC50: −log10 of the molar value.
PARAMETER: pIC50

>>> df
                           substance_smiles                           target_of_assay  experimental_value
0  CN1CCN(C(=O)C(C)(C)c2ccc(C(=O)Nc3cn4cc(-c5ccncc5)ccc4n3)cc2)CC1  Receptor-type tyrosine-protein kinase FLT3 (Homo sapiens)                5.61

---

# TARGET_OF_ASSAY: Bromodomain-containing protein 1 (Homo sapiens, UniProt O95696)
# Sequence (O95696 whole entry): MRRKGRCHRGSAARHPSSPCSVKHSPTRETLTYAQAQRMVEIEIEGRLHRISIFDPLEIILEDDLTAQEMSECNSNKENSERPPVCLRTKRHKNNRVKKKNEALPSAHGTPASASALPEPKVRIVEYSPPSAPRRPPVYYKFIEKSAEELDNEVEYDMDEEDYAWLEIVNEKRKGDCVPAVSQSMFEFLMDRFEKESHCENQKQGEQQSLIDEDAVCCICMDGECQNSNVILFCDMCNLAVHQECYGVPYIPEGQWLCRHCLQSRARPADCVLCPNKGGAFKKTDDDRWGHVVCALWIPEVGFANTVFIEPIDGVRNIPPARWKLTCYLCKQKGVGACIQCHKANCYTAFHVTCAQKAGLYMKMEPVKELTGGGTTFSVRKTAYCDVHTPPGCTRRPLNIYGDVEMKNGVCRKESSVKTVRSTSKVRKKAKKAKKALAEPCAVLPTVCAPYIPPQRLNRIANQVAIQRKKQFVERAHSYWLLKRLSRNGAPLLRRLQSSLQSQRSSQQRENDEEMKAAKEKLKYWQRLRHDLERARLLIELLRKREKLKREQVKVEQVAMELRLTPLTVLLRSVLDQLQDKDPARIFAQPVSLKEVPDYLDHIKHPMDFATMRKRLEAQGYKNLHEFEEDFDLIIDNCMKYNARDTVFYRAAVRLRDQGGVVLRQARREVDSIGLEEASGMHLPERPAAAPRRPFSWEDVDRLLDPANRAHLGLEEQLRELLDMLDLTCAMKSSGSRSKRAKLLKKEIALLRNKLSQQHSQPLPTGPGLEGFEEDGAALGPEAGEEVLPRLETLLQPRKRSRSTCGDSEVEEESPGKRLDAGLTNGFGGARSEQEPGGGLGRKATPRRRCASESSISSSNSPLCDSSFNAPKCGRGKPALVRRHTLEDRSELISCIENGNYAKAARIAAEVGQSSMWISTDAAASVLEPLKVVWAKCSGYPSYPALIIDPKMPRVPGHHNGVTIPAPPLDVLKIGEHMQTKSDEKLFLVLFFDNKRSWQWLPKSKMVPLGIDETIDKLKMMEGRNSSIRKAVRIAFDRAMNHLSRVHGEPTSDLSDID
# ASSAY_METHOD_TEXT: Selectivity interaction (AlphaScreen) EUB0000323b BRD1
PARAMETER: IC50 (nM)

                           substance_smiles  experimental_value
0  COc1cc2c(cc1NS(=O)(=O)c1ccc(Br)cc1C)n(C)c(=O)n2C                2200

---

# TARGET_OF_ASSAY: Histone-lysine N-methyltransferase SETD7 (Homo sapiens, UniProt Q8WTS6)
# Sequence (Q8WTS6 whole entry): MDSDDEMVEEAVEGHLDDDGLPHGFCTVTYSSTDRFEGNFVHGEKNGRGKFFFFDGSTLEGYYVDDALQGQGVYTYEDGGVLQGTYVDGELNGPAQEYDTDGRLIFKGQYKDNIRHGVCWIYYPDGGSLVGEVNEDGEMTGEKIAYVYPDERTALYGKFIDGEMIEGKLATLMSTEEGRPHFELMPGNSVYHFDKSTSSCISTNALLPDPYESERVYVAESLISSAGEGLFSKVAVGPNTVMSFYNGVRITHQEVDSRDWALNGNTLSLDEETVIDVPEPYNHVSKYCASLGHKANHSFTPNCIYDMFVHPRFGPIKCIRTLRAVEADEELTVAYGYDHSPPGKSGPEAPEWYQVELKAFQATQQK
# ASSAY_METHOD_TEXT: Selectivity interaction (Methyltransferase panel (Scintillation proximity assay (SPA))) EUB0000212b SETD7
pEC50: −log10 of the molar value.
PARAMETER: pEC50

                        substance_smiles  experimental_value
0  COc1cc2c(cc1OCCCN1CCCC1)N=C(N)C21CCC1              < 4.30

---

# TARGET_OF_ASSAY: D(1A) dopamine receptor (Homo sapiens, UniProt P21728)
# Sequence (P21728 whole entry): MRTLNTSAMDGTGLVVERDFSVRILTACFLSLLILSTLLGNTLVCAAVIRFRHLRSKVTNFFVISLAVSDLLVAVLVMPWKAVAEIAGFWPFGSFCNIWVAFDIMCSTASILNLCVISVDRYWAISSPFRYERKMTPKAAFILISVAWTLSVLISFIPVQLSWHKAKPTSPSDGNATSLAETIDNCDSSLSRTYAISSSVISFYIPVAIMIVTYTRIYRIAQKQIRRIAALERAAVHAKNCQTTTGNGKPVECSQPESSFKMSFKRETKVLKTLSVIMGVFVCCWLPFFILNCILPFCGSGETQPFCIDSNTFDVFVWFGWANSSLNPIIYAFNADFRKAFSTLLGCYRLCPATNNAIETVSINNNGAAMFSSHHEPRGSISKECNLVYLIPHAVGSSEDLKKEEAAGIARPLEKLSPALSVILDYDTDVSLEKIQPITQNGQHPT
# ASSAY_METHOD_TEXT: Selectivity interaction (GPCR panel (PDSP screen)) EUB0000342a DRD1
PARAMETER: Ki

>>> print(df.to_string())
                           substance_smiles  experimental_value
0  O=C(c1ccc(F)cc1)N1CC(COc2ccc(Br)cc2)(C(=O)O)C1             > 10 µM

---

# TARGET_OF_ASSAY: Proto-oncogene tyrosine-protein kinase Src (Homo sapiens)
# Sequence (P12931 2-536 limits assumed): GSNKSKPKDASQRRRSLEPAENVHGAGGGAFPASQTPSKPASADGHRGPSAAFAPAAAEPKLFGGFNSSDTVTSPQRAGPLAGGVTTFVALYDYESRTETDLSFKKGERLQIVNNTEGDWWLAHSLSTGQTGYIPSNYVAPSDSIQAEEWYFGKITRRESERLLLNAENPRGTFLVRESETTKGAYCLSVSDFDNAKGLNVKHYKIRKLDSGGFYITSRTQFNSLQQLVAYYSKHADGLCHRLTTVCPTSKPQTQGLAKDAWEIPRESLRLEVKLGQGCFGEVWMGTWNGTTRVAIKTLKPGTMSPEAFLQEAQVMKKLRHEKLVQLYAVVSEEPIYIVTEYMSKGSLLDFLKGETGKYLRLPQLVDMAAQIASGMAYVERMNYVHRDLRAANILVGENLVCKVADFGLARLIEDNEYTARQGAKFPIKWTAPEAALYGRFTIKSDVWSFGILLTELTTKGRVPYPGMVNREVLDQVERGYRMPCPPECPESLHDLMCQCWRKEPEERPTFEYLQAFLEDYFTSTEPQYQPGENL
# ASSAY_METHOD_TEXT: Selectivity interaction (Z’-LYTE assay) EUB0000638a SRC
PARAMETER: IC50

>>> print(df.to_string())
                           substance_smiles  experimental_value
0  CC#CC(=O)N1CCC[C@H]1c1nc(-c2ccc(C(=O)Nc3ccccn3)cc2)c2c(N)nccn12             > 10 µM

---

# TARGET_OF_ASSAY: Coagulation factor VII (Homo sapiens, UniProt P08709)
# Sequence (P08709 61-212 limits assumed): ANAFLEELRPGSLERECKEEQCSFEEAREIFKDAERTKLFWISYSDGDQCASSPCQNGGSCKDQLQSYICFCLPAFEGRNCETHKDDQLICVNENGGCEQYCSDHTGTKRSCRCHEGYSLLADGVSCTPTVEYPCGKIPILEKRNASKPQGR
# Sequence (P08709 213-466 limits assumed): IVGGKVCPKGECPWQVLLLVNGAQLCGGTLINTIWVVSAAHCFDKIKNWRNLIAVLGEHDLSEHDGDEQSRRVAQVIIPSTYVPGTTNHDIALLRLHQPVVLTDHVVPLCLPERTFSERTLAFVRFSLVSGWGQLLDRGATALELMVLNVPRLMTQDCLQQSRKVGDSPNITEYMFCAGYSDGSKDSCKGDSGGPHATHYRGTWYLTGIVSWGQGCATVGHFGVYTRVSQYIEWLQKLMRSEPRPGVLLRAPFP
# ASSAY_METHOD_TEXT: Selectivity interaction (Serine protease panel) EUB0000735a F7
PARAMETER: IC50

In [3]: df
Out[3]:
                                   molecule  experimental_value
0  CC(=O)C1=C(C)N(c2cccc(C(F)(F)F)c2)C(=O)N[C@@H]1c1ccc(C#N)nc1 [BAY-678]             > 30 µM

---

# TARGET_OF_ASSAY: Protein arginine N-methyltransferase 8 (Homo sapiens, UniProt Q9NR22)
# Sequence (Q9NR22 whole entry): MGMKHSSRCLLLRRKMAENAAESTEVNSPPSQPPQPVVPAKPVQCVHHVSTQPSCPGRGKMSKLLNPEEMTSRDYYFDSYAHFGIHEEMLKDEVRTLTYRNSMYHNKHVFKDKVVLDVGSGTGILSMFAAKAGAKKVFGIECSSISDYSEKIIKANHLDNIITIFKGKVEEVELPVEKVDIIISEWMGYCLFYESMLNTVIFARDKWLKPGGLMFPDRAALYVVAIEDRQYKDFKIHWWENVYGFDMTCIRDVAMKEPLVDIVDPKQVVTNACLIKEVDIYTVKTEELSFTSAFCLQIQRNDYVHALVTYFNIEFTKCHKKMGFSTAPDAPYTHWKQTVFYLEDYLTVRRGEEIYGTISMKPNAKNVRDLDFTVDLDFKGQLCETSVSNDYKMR
# ASSAY_METHOD_TEXT: Selectivity interaction (HMT panel) EUB0000194b PRMT8
PARAMETER: IC50

In [3]: df
Out[3]:
                           substance_smiles  parameter  experimental_value
0  COc1cc2c(NC3CCN(C(C)C)CC3)nc(N3CCC(F)(F)CC3)nc2cc1OCCCN1CCCC1       IC50             > 10 µM

---

# TARGET_OF_ASSAY: Protein arginine N-methyltransferase 3 (Homo sapiens, UniProt O60678)
# ASSAY_METHOD_TEXT: Selectivity interaction (HMT panel) EUB0000194b PRMT3
pIC50: −log10 of the molar value.
PARAMETER: pIC50

                           substance_smiles  experimental_value
0  COc1cc2c(NC3CCN(C(C)C)CC3)nc(N3CCC(F)(F)CC3)nc2cc1OCCCN1CCCC1              < 5.00

---

# TARGET_OF_ASSAY: Sodium-dependent dopamine transporter (Homo sapiens)
# Sequence (Q01959 whole entry): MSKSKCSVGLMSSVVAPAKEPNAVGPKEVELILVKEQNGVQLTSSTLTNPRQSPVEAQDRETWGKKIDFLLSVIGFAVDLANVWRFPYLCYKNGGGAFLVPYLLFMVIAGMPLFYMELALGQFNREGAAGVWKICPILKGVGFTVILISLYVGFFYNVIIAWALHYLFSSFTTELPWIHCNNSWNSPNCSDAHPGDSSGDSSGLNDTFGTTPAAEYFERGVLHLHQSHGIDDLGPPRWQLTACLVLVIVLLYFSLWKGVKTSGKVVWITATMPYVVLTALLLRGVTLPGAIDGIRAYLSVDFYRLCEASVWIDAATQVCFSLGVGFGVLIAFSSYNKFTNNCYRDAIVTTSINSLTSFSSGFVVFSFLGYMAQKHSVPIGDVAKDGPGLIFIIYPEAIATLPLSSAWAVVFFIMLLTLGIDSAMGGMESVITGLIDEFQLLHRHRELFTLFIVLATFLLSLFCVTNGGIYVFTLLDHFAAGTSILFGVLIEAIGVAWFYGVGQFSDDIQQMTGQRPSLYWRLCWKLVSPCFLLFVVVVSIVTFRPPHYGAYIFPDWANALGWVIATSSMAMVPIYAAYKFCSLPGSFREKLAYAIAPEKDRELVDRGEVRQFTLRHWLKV
# ASSAY_METHOD_TEXT: Selectivity interaction (GPCR panel (PDSP screen)) EUB0000303b SLC6A3
pKi: −log10 of the molar value.
PARAMETER: pKi

In [3]: df
Out[3]:
                           substance_smiles                           target_of_assay  parameter  experimental_value
0  Cc1nc(N2CC[C@H](O)C2)ncc1-c1cc(C(F)(F)F)cc2[nH]ncc12  Sodium-dependent dopamine transporter (Homo sapiens)        pKi                5.77

---

# TARGET_OF_ASSAY: Aurora kinase C (Homo sapiens, UniProt Q9UQB9)
# Sequence (Q9UQB9 whole entry): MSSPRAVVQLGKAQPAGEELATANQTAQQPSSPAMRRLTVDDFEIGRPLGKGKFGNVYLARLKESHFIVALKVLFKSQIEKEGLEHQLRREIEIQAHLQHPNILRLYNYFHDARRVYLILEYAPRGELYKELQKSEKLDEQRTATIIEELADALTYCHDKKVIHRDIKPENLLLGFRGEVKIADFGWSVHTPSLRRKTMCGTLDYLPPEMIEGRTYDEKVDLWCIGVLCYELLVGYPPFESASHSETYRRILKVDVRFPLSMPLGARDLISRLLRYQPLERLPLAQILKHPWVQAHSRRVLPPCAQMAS
# ASSAY_METHOD_TEXT: Selectivity interaction (NanoBRET assay (HEK293T cells)) EUB0000723a AURKC
pIC50: −log10 of the molar value.
PARAMETER: pIC50

>>> print(df.to_string())
                           substance_smiles  experimental_value
0  O=C(NCCCN1CCOC1=O)c1cnc(NCc2cc(Br)ccc2Br)nc1NC1CCCC1              < 5.00

---

# TARGET_OF_ASSAY: Kallikrein-4 (Homo sapiens, UniProt Q9Y5K2)
# Sequence (Q9Y5K2 whole entry): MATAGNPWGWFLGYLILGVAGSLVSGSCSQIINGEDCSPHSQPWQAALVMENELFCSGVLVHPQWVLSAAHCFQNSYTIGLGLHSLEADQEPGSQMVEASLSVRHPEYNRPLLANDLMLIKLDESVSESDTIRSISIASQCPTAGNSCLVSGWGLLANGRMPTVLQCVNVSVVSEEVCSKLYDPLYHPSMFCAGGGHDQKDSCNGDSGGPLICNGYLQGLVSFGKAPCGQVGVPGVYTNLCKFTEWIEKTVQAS
# ASSAY_METHOD_TEXT: Selectivity interaction (Serine protease panel) EUB0000735a KLK4
pIC50: −log10 of the molar value.
PARAMETER: pIC50

                           substance_smiles  parameter  experimental_value
0  CC(=O)C1=C(C)N(c2cccc(C(F)(F)F)c2)C(=O)N[C@@H]1c1ccc(C#N)nc1      pIC50              < 4.52
